Source of measurements: patent US20260028403A1

# target-of-assay: huCD28 (human, UniProt P10747 19-152, limits assumed)
# protocol: SPR, OAA format

{"binder": "v37888 (antibody, V domains shown, OAA format as v34891; also called huTN228 N1066Q (VL) OAA) VH: QVQLQESGPGLVKPSETLSLTCAVSGFSLTSYGVHWIRQPPGKGLEWLGVIWPGGGTNFNSALMSRLTISEDTSKNQVSLKLSSVTAADTAVYYCARDRAYGNYLYAMDYWGQGTLVTVSS VL: DIQMTQSPSSLSASVGDRVTITCRASESVEYYVTSLMQWYQQKPGKAPKLLIYAASQVDSGVPSRFSGSGSGTDFTLTISSLQPEDIATYYCQQSRKVPFTFGGGTKVEIK", "unit-symbol": "M⁻¹ s⁻¹", "kon": 59200}
{"binder": "v34891 (parental huTN228 OAA) (antibody, V domains shown, one-arm Fab antibody (OAA) format; also called huTN228 parental one-arm Fab antibody) VH: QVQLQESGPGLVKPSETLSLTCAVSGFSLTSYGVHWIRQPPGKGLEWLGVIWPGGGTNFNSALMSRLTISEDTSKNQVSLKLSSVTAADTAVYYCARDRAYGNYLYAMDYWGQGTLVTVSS VL: DIQMTQSPSSLSASVGDRVTITCRASESVEYYVTSLMQWYQQKPGKAPKLLIYAASNVDSGVPSRFSGSGSGTDFTLTISSLQPEDIATYYCQQSRKVPFTFGGGTKVEIK", "unit-symbol": "M⁻¹ s⁻¹", "kon": 36300}
{"binder": "v37890 (antibody, V domains shown, OAA format as v34891; also called huTN228 A1024T (VH) OAA) VH: QVQLQESGPGLVKPSETLSLTCTVSGFSLTSYGVHWIRQPPGKGLEWLGVIWPGGGTNFNSALMSRLTISEDTSKNQVSLKLSSVTAADTAVYYCARDRAYGNYLYAMDYWGQGTLVTVSS VL: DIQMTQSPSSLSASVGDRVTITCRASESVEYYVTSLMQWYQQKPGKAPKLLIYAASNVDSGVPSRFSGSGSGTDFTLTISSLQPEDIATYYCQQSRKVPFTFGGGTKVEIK", "unit-symbol": "M⁻¹ s⁻¹", "kon": 60800}
{"binder": "v37854 (antibody, V domains shown, OAA format as v34891; also called huTN228 Y1110A (VH) OAA) VH: QVQLQESGPGLVKPSETLSLTCAVSGFSLTSYGVHWIRQPPGKGLEWLGVIWPGGGTNFNSALMSRLTISEDTSKNQVSLKLSSVTAADTAVYYCARDRAAGNYLYAMDYWGQGTLVTVSS VL: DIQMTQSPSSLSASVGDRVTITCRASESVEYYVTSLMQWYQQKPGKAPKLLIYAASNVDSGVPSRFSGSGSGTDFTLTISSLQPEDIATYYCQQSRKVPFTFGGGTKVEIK", "unit-symbol": "M⁻¹ s⁻¹", "kon": 43200}
{"binder": "v37891 (antibody, V domains shown, OAA format as v34891; also called huTN228 L1053I (VH) OAA) VH: QVQLQESGPGLVKPSETLSLTCAVSGFSLTSYGVHWIRQPPGKGLEWIGVIWPGGGTNFNSALMSRLTISEDTSKNQVSLKLSSVTAADTAVYYCARDRAYGNYLYAMDYWGQGTLVTVSS VL: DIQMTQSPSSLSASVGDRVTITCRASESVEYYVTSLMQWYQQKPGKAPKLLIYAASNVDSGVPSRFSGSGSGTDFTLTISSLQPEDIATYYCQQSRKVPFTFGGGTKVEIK", "unit-symbol": "M⁻¹ s⁻¹", "kon": 58800}
